Reported IC90 values for a set of compounds
Test system: Mycobacterium tuberculosis
Assay: Antitubercular activity against Mycobacterium tuberculosis H37Rv after 4 days by microplate alamar blue assay
Type: functional
Details: 96 h

Some compounds with known IC90 results, for comparison:
Chemical smiles | Measured parameter | Result
Cc1ccc2c(c1)/C(=N/NC(=S)NCc1ccccc1)C(=O)N2 | IC90 | > 100 µg/mL
Cc1ccc2c(c1)/C(=N/NC(=S)NC1CCCCC1)C(=O)N2 | IC90 | 0.795 µg/mL

Turning to the following compound.
Return the recorded IC90 value; entry: `Cc1ccc(NC(=S)N/N=C2\C(=O)N(C)c3ccc(C)cc32)cc1`
> 100 µg/mL

---

Test system: Mycobacterium tuberculosis
Experiment: Antitubercular activity against Mycobacterium tuberculosis H37Rv after 4 days by microplate alamar blue assay
Assay type: functional
Conditions: 96 h
Reported IC90 values for a set of molecules

Chemical smiles | IC90
O=C1Nc2ccc(OC(F)(F)F)cc2/C1=N/NC(=S)Nc1ccccc1 | > 100 µg/mL
CN1C(=O)/C(=N\NC(=S)NCc2ccccc2)c2cc(OC(F)(F)F)ccc21 | > 100 µg/mL
Cc1ccc2c(c1)/C(=N/NC(=S)Nc1ccc([N+](=O)[O-])cc1)C(=O)N2 | > 100 µg/mL
CCNC(=S)N/N=C1\C(=O)N(CN2CCOCC2)c2ccc(OC(F)(F)F)cc21 | > 100 µg/mL

Give IC90 for `CCCCNC(=S)N/N=C1\C(=O)Nc2ccc(OC(F)(F)F)cc21` tested on Mycobacterium tuberculosis.
> 100 µg/mL

Give IC90 for `O=C1Nc2ccc(OC(F)(F)F)cc2/C1=N/NC(=S)Nc1ccc(Cl)cc1` tested on Mycobacterium tuberculosis.
1.52 µg/mL

Give IC90 for `Cc1ccc2c(c1)/C(=N/NC(=S)Nc1ccccc1Br)C(=O)N2` tested on Mycobacterium tuberculosis.
> 100 µg/mL

Give IC90 for `CCCCNC(=S)N/N=C1\C(=O)N(CN2CCOCC2)c2ccc(OC(F)(F)F)cc21` tested on Mycobacterium tuberculosis.
> 100 µg/mL

---

Reported IC90 values for a set of compounds
Tested on: Mycobacterium tuberculosis
Test: Antitubercular activity against Mycobacterium tuberculosis H37Rv after 4 days by microplate alamar blue assay
Type: functional
Settings: 96 h

Chemical smiles | Result
O=C1Nc2ccc(OC(F)(F)F)cc2/C1=N/NC(=S)NC1CCCCC1 | > 100 µg/mL
O=C1/C(=N\NC(=S)Nc2ccc([N+](=O)[O-])cc2)c2cc(OC(F)(F)F)ccc2N1CN1CCOCC1 | > 100 µg/mL
CN1C(=O)/C(=N\NC(=S)Nc2ccc(Cl)cc2)c2cc(OC(F)(F)F)ccc21 | > 100 µg/mL
CCNC(=S)N/N=C1\C(=O)Nc2ccc(C)cc21 | > 100 µg/mL
O=C1/C(=N\NC(=S)Nc2ccc(Br)cc2)c2cc(OC(F)(F)F)ccc2N1CN1CCOCC1 | 3.03 µg/mL
Cc1ccc2c(c1)/C(=N/NC(=S)Nc1ccc(Cl)cc1)C(=O)N2C | > 100 µg/mL
C=CCNC(=S)N/N=C1\C(=O)N(CN2CCOCC2)c2ccc(OC(F)(F)F)cc21 | > 100 µg/mL
O=C1/C(=N\NC(=S)NC2CCCCC2)c2cc(OC(F)(F)F)ccc2N1CN1CCOCC1 | 5.69 µg/mL
Cc1ccc2c(c1)/C(=N/NC(=S)Nc1ccccc1)C(=O)N2C | > 100 µg/mL

Turning to the following compound.
Return the recorded IC90 value; entry: `Cc1ccc2c(c1)/C(=N/NC(=S)Nc1cccc(Br)c1)C(=O)N2`
1.49 µg/mL
